System: MALME-3M melanoma
Assay: NCI tumour cell line growth inhibition, 48 h
Lab note: class by TGI, see low (below 4 µM), moderate (4 µM to below 30 µM), high (30 µM or more)

// known answers, use as guide
C#C[C@@]1(O)[C@@H](CO)O[C@@H](n2cc(C(F)(F)F)c3c(N)ncnc32)[C@@H]1O : moderate
COC(=O)c1c(O)ccc2c1c1c(n2Cc2ccccc2OC)C(=O)c2ccccc2C1=O : high
CCOC(=O)c1[nH]c2cc(OC)c(OC)cc2c1CN(C)C : high
Cc1ccc(N=C2N=C(N3CC(C)OC(C)C3)c3ccccc32)cc1 (stereo not given) : high
C[n+]1c2ccccc2c(CNCC(=O)O)c2ccccc21 : moderate
C(=C\C(Sc1ccccc1)c1ccccc1)/NNC1=NC(c2ccccc2)C(c2ccccc2)=NN1 (stereo not given) : high
O=C(CC1C(=O)Nc2ccccc2S1(=O)=O)Nc1ccc(Cl)cc1 (stereo not given) : high
CC/C(Cl)=N\OC(=O)Nc1ccc(OC)c(C)c1 : moderate

Each compound maps to one class by TGI. Which class for Cc1cc(S(=O)(=O)Nc2nnc3ccccn23)c(S)cc1Cl ?
high

Also O=C1C=C(OCC=C(C(F)(F)F)C(F)(F)F)c2ccccc2C1=O , if possible.
low

Same lookup for Nc1cc2ncnn2c(SCC(=O)N/N=C/C(Br)=C\c2ccccc2)n1 , please.
moderate

Consider next the compound CCCCNC(=S)OCCC(C)CCCC(C)C (stereo not given) in the same way.
high

Same question, COc1ccc(C(=O)c2cc3c(N)c(C(=O)Nc4cccc(Br)c4C)sc3nc2C)cc1 this time
high

Similarly, NS(=O)(=O)c1ccc(NC(=O)C2C(=O)C(=O)N(c3ccc(S(N)(=O)=O)cc3)C2=O)cc1 (stereo not given) ?
high

Same thing, different compound: Nc1ncc(C=O)c(NCC2(CO)CCC2)n1
high

---

Test system: HL-60(TB) leukemia
Assay: NCI tumour cell line growth inhibition, 48 h
Assign 1 (yes) whenever TGI does not fall below 6 µM; assign 0 (no) whenever it does.

// below: answered compounds
COc1ccc(OC)c(NC(=O)C(=O)CC(=O)c2sc(-n3nc(-c4ccccc4)cc3-c3ccccc3)nc2C)c1 : 1 (yes)
O=C(Nc1cc(Cl)ccc1O)c1ccccc1Nc1ccnc(C(F)(F)F)c1 : 0 (no)
CCc1cc2c(O)c(c1)Cc1cc(CC)cc(c1O)Cc1cc(CC)cc(c1O)Cc1cc(CC)cc(c1O)Cc1cc(CC)cc(c1O)Cc1cc(CC)cc(c1O)Cc1cc(CC)cc(c1O)C2 : 1 (yes)
O=C(CC(C(=O)c1ccsc1)c1ccsc1)c1ccsc1 (centres undefined) : 1 (yes)
Nc1nc(Cl)c2ncn(Cc3cccc(CCl)c3)c2n1 : 1 (yes)
c1ccc2c(c1)Cc1c(Cc3csc4ccccc34)ccc3cccc-2c13 : 1 (yes)

Please check the record C=CCOCCC(CC=C)C(=O)CC(=O)OC (centres undefined) and state if its TGI is at or above 6 µM.
1 (yes)

Entry Nc1ncc(-c2ccc3ncnc(N4CCc5ccc(Cl)cc54)c3c2)cc1C(F)(F)F please
1 (yes)

Lookup COc1ccc(-c2cc(-c3ccc(Cl)cc3)nc(NCCCCNc3ccnc4cc(Cl)ccc34)n2)cc1
1 (yes)

Request: N#CC1(C#N)C=CC(=C2OCC3CCCN23)C=C1 (centres undefined)
1 (yes)

Moving on to Cc1nc2sc3c(N)ncnc3c2c(C)c1C
1 (yes)
